MEASUREMENT TARGET: Adenosine receptor A1 (Homo sapiens)
Sequence (P30542 whole entry): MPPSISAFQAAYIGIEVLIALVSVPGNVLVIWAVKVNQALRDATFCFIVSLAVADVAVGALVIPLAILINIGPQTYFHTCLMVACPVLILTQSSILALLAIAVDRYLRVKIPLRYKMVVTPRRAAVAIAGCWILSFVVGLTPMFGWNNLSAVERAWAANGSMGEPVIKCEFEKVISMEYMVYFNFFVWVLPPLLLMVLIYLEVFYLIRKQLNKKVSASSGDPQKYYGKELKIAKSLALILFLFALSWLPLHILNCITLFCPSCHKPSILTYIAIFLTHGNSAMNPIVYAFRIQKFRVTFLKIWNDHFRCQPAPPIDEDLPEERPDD
MEASURED QUANTITY: IC50

Fill in the recorded IC50 for this molecule, with Adenosine receptor A1 (Homo sapiens) as test system: CN(C)CC(c1ccc(O)cc1)C1(O)CCCCC1 (stereo unspecified) [CAS_386750-22-7]
> 10 µM

* * *

Sequence of the target: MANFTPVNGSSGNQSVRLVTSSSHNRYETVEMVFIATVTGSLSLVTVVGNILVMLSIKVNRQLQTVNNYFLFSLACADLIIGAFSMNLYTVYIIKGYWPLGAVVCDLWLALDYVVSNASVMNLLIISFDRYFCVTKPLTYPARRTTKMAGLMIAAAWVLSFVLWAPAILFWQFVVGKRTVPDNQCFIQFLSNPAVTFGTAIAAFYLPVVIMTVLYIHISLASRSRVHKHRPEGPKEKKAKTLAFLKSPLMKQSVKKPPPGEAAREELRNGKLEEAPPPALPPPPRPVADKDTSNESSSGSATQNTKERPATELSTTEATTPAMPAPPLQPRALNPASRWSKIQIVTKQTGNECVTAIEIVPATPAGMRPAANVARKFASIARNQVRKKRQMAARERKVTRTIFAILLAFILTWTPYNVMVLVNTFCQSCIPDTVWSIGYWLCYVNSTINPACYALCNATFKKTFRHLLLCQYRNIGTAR
MEASURED QUANTITY: IC50

Record request: IC50 value, item CN(C)CC(c1ccc(O)cc1)C1(O)CCCCC1 (stereo unspecified)
> 10 µM
